The entries below come with measured EC50 values attached.
- Subject of test: human alpha 7-wt nAChR (Homo sapiens, UniProt P36544)
- Construct: expressed in transfected cells
- Sequence (P36544 23-502): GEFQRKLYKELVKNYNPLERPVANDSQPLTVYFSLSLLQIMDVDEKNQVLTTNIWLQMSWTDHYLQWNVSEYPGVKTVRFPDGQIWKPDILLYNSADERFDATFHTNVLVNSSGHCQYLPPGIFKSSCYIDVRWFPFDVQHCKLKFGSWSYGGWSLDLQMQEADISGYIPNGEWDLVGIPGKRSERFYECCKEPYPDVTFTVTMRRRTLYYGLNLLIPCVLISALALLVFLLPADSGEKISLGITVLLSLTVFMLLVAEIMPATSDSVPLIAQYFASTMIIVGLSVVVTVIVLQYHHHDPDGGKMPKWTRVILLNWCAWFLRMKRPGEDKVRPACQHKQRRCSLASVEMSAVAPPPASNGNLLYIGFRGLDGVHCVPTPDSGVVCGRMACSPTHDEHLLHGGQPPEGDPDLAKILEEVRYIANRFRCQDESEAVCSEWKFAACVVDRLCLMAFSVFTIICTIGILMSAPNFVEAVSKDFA
- Measurement description: Ca2+ flux imaging (FDSS) (protocol B)
- Assay type: cell-based
- Recorded conditions: Ca2+ assay as described in D.1; read-out: pEC50 (converted)
- Procedure: Example D.1 : Ca^2+ flux imaging (FDSS) (protocol B) […] PAM activity was detected in real time by applying the compounds to be tested to the loaded cells along with an alpha 7 nicotinic receptor agonist during constant monitoring of cellular fluorescence in a FDSS. […] A control response to choline was calculated on each plate from the difference in peak in fluorescence in wells receiving either choline or assay buffer alone. […]
Reported property: EC50 (nM)

[
  {
    "Input smiles": "Cc1cc(-c2ccc(N3C[C@@H](C)O[C@@H](C)C3)c(CNC(=O)CC3CC3)c2)cc(C)n1",
    "Reported property": "EC50",
    "Quantitative result": 60.3
  },
  {
    "Input smiles": "Cc1cc(-c2ccc(N3C[C@@H](C)O[C@@H](C)C3)c(CNC(=O)c3conc3C)c2)cc(C)n1",
    "Reported property": "EC50",
    "Quantitative result": 129
  },
  {
    "Input smiles": "Cc1cc(-c2c(F)cc(N3CCO[C@H](C(F)(F)F)C3)cc2CNC(=O)C(C)C)cc(C)n1",
    "Reported property": "EC50",
    "Quantitative result": 30.9
  },
  {
    "Input smiles": "Cc1cc(-c2c(F)cc(N3CCO[C@H](C(F)(F)F)C3)cc2CNC(=O)CC(C)C)cc(C)n1",
    "Reported property": "EC50",
    "Quantitative result": 5.01
  }
]
